Data credit: the supplement of paper PMC9112550

System: Escherichia coli TOP10
TEST DETAILS: shrunken log2 fold change of peptide-encoding DNA abundance (4.5 h post-induction vs induction); higher = less antimicrobial activity (less host growth inhibition)
TEST CONDITIONS: time post-induction: 4.5 h; library: site-saturation at positions 5, 18, 19, 20
PARAMETER MEASURED: shrunken log2 fold change
Just the number, please, no unit after it.

Consider "RRIRQRPPRLPRPRPRPITYPRP" . Its measured shrunken log2 fold change is -0.402

Consider "RRIRSRPPRLPRPRPRPGINPRP" . Its measured shrunken log2 fold change is 0.00688

Consider "RRIRERPPRLPRPRPRPRGIPRP" . Its measured shrunken log2 fold change is -0.102

Consider "RRIRHRPPRLPRPRPRPPYSPRP" . Its measured shrunken log2 fold change is -0.418

Consider "RRIRVRPPRLPRPRPRPHDIPRP" . Its measured shrunken log2 fold change is 0.0663

Consider "RRIRGRPPRLPRPRPRPFQIPRP" . Its measured shrunken log2 fold change is -0.0147

Consider "RRIRKRPPRLPRPRPRPKQNPRP" . Its measured shrunken log2 fold change is 0.706

Consider "RRIRDRPPRLPRPRPRPYPFPRP" . Its measured shrunken log2 fold change is -0.671

###

System: Escherichia coli TOP10
TEST DETAILS: shrunken log2 fold change of peptide-encoding DNA abundance (4.5 h post-induction vs induction); higher = less antimicrobial activity (less host growth inhibition)
TEST CONDITIONS: time post-induction: 4.5 h; library: site-saturation at positions 5, 18, 19, 20
PARAMETER MEASURED: shrunken log2 fold change
Just the number, please, no unit after it.

The recorded shrunken log2 fold change with Escherichia coli TOP10 for "RRIRNRPPRLPRPRPRPHNHPRP" was -0.739

The recorded shrunken log2 fold change with Escherichia coli TOP10 for "RRIRWRPPRLPRPRPRPKVPPRP" was -0.0143

The recorded shrunken log2 fold change with Escherichia coli TOP10 for "RRIRWRPPRLPRPRPRPIMDPRP" was -0.195

The recorded shrunken log2 fold change with Escherichia coli TOP10 for "RRIRNRPPRLPRPRPRPGNCPRP" was -0.00183

The recorded shrunken log2 fold change with Escherichia coli TOP10 for "RRIRGRPPRLPRPRPRPTFRPRP" was -0.135

The recorded shrunken log2 fold change with Escherichia coli TOP10 for "RRIRFRPPRLPRPRPRPAVLPRP" was 0.107

The recorded shrunken log2 fold change with Escherichia coli TOP10 for "RRIRMRPPRLPRPRPRPTCQPRP" was -0.049

The recorded shrunken log2 fold change with Escherichia coli TOP10 for "RRIRMRPPRLPRPRPRPSFDPRP" was 0.485

###

Tested on: Escherichia coli TOP10;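 also: peptides expressed intracellularly from a pBAD plasmid library in pooled LB shake-flask culture, induced with 0.3% L-arabinose, DNA abundance read by NGS, three biological replicates, DESeq2 with apeglm shrinkage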
TEST DETAILS: shrunken log2 fold change of peptide-encoding DNA abundance (4.5 h post-induction vs induction); higher = less antimicrobial activity (less host growth inhibition)
TEST CONDITIONS: time post-induction: 4.5 h; library: site-saturation at positions 5, 18, 19, 20
Provide the recorded shrunken log2 fold change for the entries that follow.
Just the number, please, no unit after it.

Consider "RRIRFRPPRLPRPRPRPRKHPRP" . Its measured shrunken log2 fold change is 0.0878

Consider "RRIRPRPPRLPRPRPRPNPMPRP" . Its measured shrunken log2 fold change is -0.211

Consider "RRIRCRPPRLPRPRPRPVKTPRP" . Its measured shrunken log2 fold change is -0.132

Consider "RRIRCRPPRLPRPRPRPFQFPRP" . Its measured shrunken log2 fold change is 0.133

Consider "RRIRWRPPRLPRPRPRPFMNPRP" . Its measured shrunken log2 fold change is -0.11

Consider "RRIRCRPPRLPRPRPRPVFGPRP" . Its measured shrunken log2 fold change is -0.0365

Consider "RRIRVRPPRLPRPRPRPPLIPRP" . Its measured shrunken log2 fold change is 1.02

Consider "RRIRGRPPRLPRPRPRPCVWPRP" . Its measured shrunken log2 fold change is 0.921
